These measurements were taken from patent US20260116991A1.

molecular target: T1, murine GPC3-his protein (Sino Biological, Cat. No. 50989-M08B) (murine, UniProt Q8CFZ4 25-558); experiment: ELISA, coated murine GPC3-His;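 further: antigen coated on plates at 1 µg/mL, test antibody bound for 2 h at 37 °C, detected with HRP-conjugated secondary antibody and TMB substrate after acid stop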
T1 construct: Bought protein; also called murine GPC3 protein
T1 sequence (Q8CFZ4 25-558 limits assumed): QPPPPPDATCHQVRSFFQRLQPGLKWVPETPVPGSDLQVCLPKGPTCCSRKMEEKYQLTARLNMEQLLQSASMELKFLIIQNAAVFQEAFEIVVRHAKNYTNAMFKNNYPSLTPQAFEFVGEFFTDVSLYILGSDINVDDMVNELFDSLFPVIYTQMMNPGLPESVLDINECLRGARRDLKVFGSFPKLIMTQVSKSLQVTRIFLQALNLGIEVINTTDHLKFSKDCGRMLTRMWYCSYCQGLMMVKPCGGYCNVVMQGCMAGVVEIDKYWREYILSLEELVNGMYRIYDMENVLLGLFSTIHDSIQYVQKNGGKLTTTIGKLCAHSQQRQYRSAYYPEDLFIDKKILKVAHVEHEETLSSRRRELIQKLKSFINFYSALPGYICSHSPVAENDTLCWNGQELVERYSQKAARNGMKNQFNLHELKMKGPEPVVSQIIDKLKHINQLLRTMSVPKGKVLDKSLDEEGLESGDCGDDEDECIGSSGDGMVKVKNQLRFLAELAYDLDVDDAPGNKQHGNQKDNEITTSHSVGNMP
In this section, each of the binders is paired with its reported OD450 at 0.1 nM antibody.
Your answer should be a plain number; it is taken to be in OD450 nm.

Guide cases for OD450 at 0.1 nM antibody, answers given:
1. F1.92.17 human-murine chimeric antibody (antibody, human IgG1, kappa, V domains shown) VH: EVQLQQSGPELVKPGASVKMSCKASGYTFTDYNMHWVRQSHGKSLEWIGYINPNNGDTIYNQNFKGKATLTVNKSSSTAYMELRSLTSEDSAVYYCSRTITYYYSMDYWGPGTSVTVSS VL: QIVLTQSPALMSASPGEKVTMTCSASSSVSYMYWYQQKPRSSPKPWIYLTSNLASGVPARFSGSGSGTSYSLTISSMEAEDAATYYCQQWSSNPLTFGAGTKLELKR: 0.06
2. F1.136.7 human-murine chimeric antibody (antibody, human IgG1, kappa, V domains shown) VH: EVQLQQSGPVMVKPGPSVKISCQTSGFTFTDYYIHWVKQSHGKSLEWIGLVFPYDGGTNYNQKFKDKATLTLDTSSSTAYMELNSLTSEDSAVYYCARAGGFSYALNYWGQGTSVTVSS VL: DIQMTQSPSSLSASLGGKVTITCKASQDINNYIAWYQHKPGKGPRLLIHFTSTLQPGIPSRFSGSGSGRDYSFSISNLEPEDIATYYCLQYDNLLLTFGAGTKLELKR: 0.22

Incoming: Query (binder): F1.83.6 human-murine chimeric antibody (antibody, human IgG1, kappa, V domains shown) VH: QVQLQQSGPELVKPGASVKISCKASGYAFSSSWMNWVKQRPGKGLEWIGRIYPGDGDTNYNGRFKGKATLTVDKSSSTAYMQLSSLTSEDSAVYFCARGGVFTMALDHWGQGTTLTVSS VL: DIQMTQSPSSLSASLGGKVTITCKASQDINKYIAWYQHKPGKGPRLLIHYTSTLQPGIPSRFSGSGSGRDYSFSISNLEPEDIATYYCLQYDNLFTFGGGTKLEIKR ; field requested: OD450 at 0.1 nM antibody
Outgoing: 0.12

Incoming: Thanks! And F4.26.1 human-murine chimeric antibody (antibody, human IgG1, kappa, V domains shown) VH: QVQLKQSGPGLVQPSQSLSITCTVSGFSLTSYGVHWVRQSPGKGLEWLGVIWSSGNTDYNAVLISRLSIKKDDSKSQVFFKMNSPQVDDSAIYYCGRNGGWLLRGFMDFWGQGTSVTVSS VL: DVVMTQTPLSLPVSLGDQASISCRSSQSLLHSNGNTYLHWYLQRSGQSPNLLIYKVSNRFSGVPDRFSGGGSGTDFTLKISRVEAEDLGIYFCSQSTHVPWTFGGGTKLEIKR ?
Outgoing: 0.57

Incoming: Thanks! And F4.18.4 human-murine chimeric antibody (antibody, human IgG1, kappa, V domains shown) VH: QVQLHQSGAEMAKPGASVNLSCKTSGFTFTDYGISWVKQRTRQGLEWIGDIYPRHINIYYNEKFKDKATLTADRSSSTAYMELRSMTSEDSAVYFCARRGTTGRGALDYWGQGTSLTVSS VL: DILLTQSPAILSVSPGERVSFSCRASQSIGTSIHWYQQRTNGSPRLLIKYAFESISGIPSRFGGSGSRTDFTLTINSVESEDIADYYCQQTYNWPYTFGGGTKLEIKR ?
Outgoing: 0.1

Incoming: Thanks! And F1.62.9 human-murine chimeric antibody (antibody, human IgG1, kappa, V domains shown) VH: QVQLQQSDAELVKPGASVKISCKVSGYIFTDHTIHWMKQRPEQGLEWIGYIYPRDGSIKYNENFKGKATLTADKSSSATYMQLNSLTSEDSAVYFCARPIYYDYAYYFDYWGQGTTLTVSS VL: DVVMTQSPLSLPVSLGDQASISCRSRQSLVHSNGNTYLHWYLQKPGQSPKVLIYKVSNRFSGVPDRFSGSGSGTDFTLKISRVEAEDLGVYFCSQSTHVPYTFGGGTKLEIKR ?
Outgoing: 0.04

Incoming: Thanks! And F4.21.16 human-murine chimeric antibody (antibody, human IgG1, kappa, V domains shown) VH: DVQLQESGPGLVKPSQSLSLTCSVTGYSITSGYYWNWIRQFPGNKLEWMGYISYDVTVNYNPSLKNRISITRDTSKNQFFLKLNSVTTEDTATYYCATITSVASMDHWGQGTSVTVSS VL: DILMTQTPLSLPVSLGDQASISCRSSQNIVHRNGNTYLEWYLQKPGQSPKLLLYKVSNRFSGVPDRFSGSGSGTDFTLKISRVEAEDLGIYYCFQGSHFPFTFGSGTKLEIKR ?
Outgoing: 0.09

Incoming: Thanks! And F1.2.14 human-murine chimeric antibody (antibody, human IgG1, kappa, V domains shown) VH: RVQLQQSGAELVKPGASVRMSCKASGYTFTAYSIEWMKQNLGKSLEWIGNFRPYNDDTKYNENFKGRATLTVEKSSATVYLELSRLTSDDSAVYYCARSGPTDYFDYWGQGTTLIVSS VL: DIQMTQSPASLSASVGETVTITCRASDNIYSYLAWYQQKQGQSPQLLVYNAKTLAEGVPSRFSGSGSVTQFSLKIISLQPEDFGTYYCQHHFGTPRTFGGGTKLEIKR ?
Outgoing: 0.14
